system-name: CCK receptor (brain, cortex) (Cavia porcellus, UniProt H0VZC5)
Construct: the cortex was removed and homogenized in 25 mL ice-cold 0.32 M sucrose; from tissue; host or cells: guinea pig brain cortex P2 membrane pellet
Sequence (H0VZC5 1-426): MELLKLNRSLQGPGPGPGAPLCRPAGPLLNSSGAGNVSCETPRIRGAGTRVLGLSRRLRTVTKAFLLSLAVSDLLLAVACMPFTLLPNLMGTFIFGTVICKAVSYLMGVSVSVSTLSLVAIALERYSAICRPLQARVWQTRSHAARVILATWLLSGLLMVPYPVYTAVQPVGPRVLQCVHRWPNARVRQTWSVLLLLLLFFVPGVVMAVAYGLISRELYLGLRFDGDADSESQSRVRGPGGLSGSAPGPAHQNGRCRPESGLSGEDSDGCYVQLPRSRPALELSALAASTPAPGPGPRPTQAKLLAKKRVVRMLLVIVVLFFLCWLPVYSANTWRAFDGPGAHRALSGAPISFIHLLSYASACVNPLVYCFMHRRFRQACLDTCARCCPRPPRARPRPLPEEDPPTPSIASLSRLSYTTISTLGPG
assay-details: biochemical
Format: binding, guinea pig
cond: guinea pig cortex membranes, 50 pM 125I-CCK-8, 25°C 2 hours; read-out: IC50 ^125I-CCK Brain
pIC50: −log10 of the molar value.
Values of pIC50 greater than or equal to 9 map to rule met; values below map to rule not met.

>  <compound>
Cc1cccc(NC(=O)NC2N=C(C3CCCCC3)c3ccccc3N(C)C2=O)c1 (single isomer, unassigned) [7 (Peak B)]

>  <system-name>
CCK receptor (brain, cortex) (Cavia porcellus, UniProt H0VZC5)

>  <class-name>
rule not met

$$$$
>  <compound>
CN1C(=O)C(NC(=O)Nc2cccc(C(=O)NS(=O)(=O)C(F)(F)F)c2)N=C(C2CCCCC2)c2ccccc21 (racemic)

>  <system-name>
CCK receptor (brain, cortex) (Cavia porcellus, UniProt H0VZC5)

>  <class-name>
rule met

$$$$

### Prompt Identify whether the reported pIC50 of the following compound is 9 or greater: CN1C(=O)C(NC(=O)Nc2cccc(-c3nn[nH]n3)c2)N=C(C2CCCCC2)c2ccccc21 (racemic)
### Response rule met

### Prompt Identify whether the reported pIC50 of the following compound is 9 or greater: CC(C)CN1C(=O)C(NC(=O)Nc2cccc(-c3nn[nH]n3)c2)N=C(C2CCCC2)c2ccccc21 (racemic)
### Response rule met

### Prompt Identify whether the reported pIC50 of the following compound is 9 or greater: CCCN1C(=O)C(NC(=O)Nc2cccc(C(=O)NS(C)(=O)=O)c2)N=C(C2CCCCC2)c2ccccc21 (racemic)
### Response rule not met

Value source: patent EP0514133A1
